- Tested on: ACHN renal
- test method notes: NCI tumour cell line growth inhibition, 48 h
Catalogue of TGI values

compound	unit info	censoring qualifier	TGI
CCOC(=O)N1C=CC(=C2C(=C3C=CN(C(=O)OCC)C=C3)C(=C3C=CN(C(=O)OCC)C=C3)C2=C2C=CN(C(=O)OCC)C=C2)C=C1	µM	=	38.1
COC(=O)C1(C(=O)OC)CC2=C(S(=O)(=O)c3ccccc3)C[C@H](C#N)[C@H]2C1	µM	>	100
CN1N=C2c3ccccc3CC[C@H]2C1c1cccc(O)c1 (some centres undefined)	µM	>	100
N#C[S-].[Ce+3].c1cnc2c(c1)ccc1cccnc12.c1cnc2c(c1)ccc1cccnc12.c1cnc2c(c1)ccc1cccnc12	µM	=	11.7
CN1CCc2cc(N)cc3c2C1Cc1ccc2c(c1-3)OCO2 (centres undefined)	µM	>	75.5
Cc1cc(N(CCOS(C)(=O)=O)CCOS(C)(=O)=O)ccc1C=Nc1ccc(-c2csc(-c3ccc(Br)cc3)n2)cc1	µM	=	13.8
Nc1nc(=O)n(CC(O)CO)s1 (centres undefined)	µM	>	100
CCN(CC)CC[n+]1cc2cc(OC)c(OC)cc2c2ccc3cc4c(cc3c21)OCO4	µM	=	4.07
Cn1c(=O)cc(N2CCCC2)[nH]c1=O	µM	>	100

====

Catalogue of GI50 values
- Test system: EKVX NSCLC
- test method notes: NCI tumour cell line growth inhibition, 48 h
reported property: GI50

compound	result
Nc1c2ccccc2nc2ccccc12 (tested in a mixture with another compound)	2010 nM
c1ccc2c3c(ccc2c1)-c1c(ccc2c(NCCCCN4CCCCC4)cccc12)C3	10700 nM
C[C@@H]1OCC2(CCN(c3cnc(Sc4ccnc(N)c4Cl)c(N)n3)CC2)[C@@H]1N	573 nM

====

Catalogue of TGI values
- Tested on: CCRF-CEM leukemia
- test method notes: NCI tumour cell line growth inhibition, 48 h
reported property: TGI

molecule	tested on	result
Nc1ccccc1C#Cc1ccccc1C#Cc1cnccn1	CCRF-CEM leukemia	> 100 µM
C=CCC1C(=O)Nc2cccc3ncn(c23)C1=O (configuration not stated)	CCRF-CEM leukemia	> 100 µM
O=C(NNC(=O)c1nsc2ccccc12)c1ccc(Cl)cc1	CCRF-CEM leukemia	38.1 µM
ClCCN(CCCl)c1ccc(CNCCCNCc2ccc(N(CCCl)CCCl)cc2)cc1	CCRF-CEM leukemia	> 100 µM
CCCCCCCCCCCCCCCCCC[N+](C)(C)Cc1ccc(C[N+](C)(C)CCCCCCCCCCCCCCCCCC)cc1	CCRF-CEM leukemia	44.1 µM
Fc1cccc(-c2[nH]nc3nc(Nc4cccnc4)sc23)c1	CCRF-CEM leukemia	> 100 µM
N#CC1(C#N)C(c2ccccc2)C=CC(c2ccc([N+](=O)[O-])cc2)C1(C#N)C#N (configuration not stated)	CCRF-CEM leukemia	> 100 µM
O=c1cc(-c2cccc(OCc3ccccc3)c2)[nH]c2cc3c(cc12)OCO3	CCRF-CEM leukemia	0.481 µM
O=C(c1cccs1)N(Cc1cccnc1)C(=S)N(Cc1cccnc1)C(=O)c1cccs1	CCRF-CEM leukemia	> 100 µM
Nc1ncnc2c1ncn2C1CC(OC2CCCCO2)C(CO)O1 (configuration not stated)	CCRF-CEM leukemia	> 100 µM
Cc1ccc(C2SCC(=O)N2NC(=O)c2ccncc2)s1 (configuration not stated)	CCRF-CEM leukemia	> 100 µM
C#CCCOC(=O)c1ccccc1OC(C)=O	CCRF-CEM leukemia	> 100 µM
Nc1nc(=O)n(CC(O)CO)s1 (configuration not stated)	CCRF-CEM leukemia	> 100 µM
C=C[C@H]1C=Cc2c(OC)cccc2[C@@H]1COP1(=S)NC(C)C(c2ccccc2)O1 (some centres not stated)	CCRF-CEM leukemia	> 100 µM
Nc1nc(-c2ccccc2)cc(-c2ccc(Cl)cc2)c1-c1nc2ccccc2o1	CCRF-CEM leukemia	17 µM
COc1ccc2c(c1)C(=O)c1c-2c(NCCN(C)C)nc2ccccc12	CCRF-CEM leukemia	11.5 µM
C[C@]12CCC(=O)C=C1CC[C@@H]1[C@@H]2[C@@H](O)C[C@@]2(C)[C@H]1CC[C@]2(O)C(=O)COC(=O)C1CCCC1	CCRF-CEM leukemia	> 100 µM
Cc1cc(=O)[nH]c(NNC(C#N)c2ccco2)n1 (configuration not stated)	CCRF-CEM leukemia	> 100 µM
O=[N+]([O-])c1cc2c(c([N+](=O)[O-])c1)Nc1ccccc1O2	CCRF-CEM leukemia	> 100 µM
N#CCc1nc(-c2cc3c(ccc4ccccc43)oc2=O)cs1	CCRF-CEM leukemia	> 100 µM
Cc1ccc(S(=O)(=O)Nn2c(O)c(C#N)c(-c3ccc(N(C)C)cc3)c(C#N)c2=O)cc1	CCRF-CEM leukemia	> 50 µM
CC1=C2CN(C(=O)OCC(C)C)CCC2C2=C(C(=O)c3ccccc3C2=O)C1C (configuration not stated)	CCRF-CEM leukemia	> 10 µM
